Values compiled from ChEMBL document CHEMBL1136309.

# Target Of Assay: Human immunodeficiency virus type 1 protease (Human immunodeficiency virus 1) (UniProt Q72874)
# Test Protocol: Inhibitory activity against HIV protease at a compound concentration of 0.5 nM in MT-4 cells
# Type: cell-based
# Test Context: MT4
Observable: inhibition (%)

[
  {
    "Molecule": "Cc1cc(C)c(OCC(=O)N[C@@H](Cc2ccccc2)C[C@H](O)[C@H](Cc2ccccc2)NC(=O)O[C@H]2COC3OCCC32)c(C)c1 (some centres not stated)",
    "inhibition (%)": 82
  },
  {
    "Molecule": "Cc1cc(C)c(OCC(=O)N[C@@H](Cc2ccccc2)C[C@H](O)[C@H](Cc2ccccc2)NC(=O)O[C@H]2COC3OCCC32)c(C)c1N (some centres not stated)",
    "inhibition (%)": 74
  },
  {
    "Molecule": "Cc1cccc(C)c1OCC(=O)N[C@@H](Cc1ccccc1)[C@@H](O)C[C@H](Cc1ccccc1)NC(=O)OC1COC2OCCC12 (some centres not stated)",
    "inhibition (%)": 91
  },
  {
    "Molecule": "Cc1cccc(C)c1NCC(=O)N[C@@H](Cc1ccccc1)C[C@H](O)[C@H](Cc1ccccc1)NC(=O)O[C@H]1COC2OCCC21 (some centres not stated)",
    "inhibition (%)": 69
  },
  {
    "Molecule": "Cc1cc(N)c(N)c(C)c1OCC(=O)N[C@@H](Cc1ccccc1)C[C@H](O)[C@H](Cc1ccccc1)NC(=O)O[C@H]1COC2OCCC21 (some centres not stated)",
    "inhibition (%)": 76
  },
  {
    "Molecule": "Cc1cc2[nH]nnc2c(C)c1OCC(=O)N[C@@H](Cc1ccccc1)C[C@H](O)[C@H](Cc1ccccc1)NC(=O)O[C@H]1COC2OCCC21 (some centres not stated)",
    "inhibition (%)": 67
  },
  {
    "Molecule": "Cc1ccc(O)c(C)c1OCC(=O)N[C@@H](Cc1ccccc1)C[C@H](O)[C@H](Cc1ccccc1)NC(=O)O[C@H]1COC2OCCC21 (some centres not stated)",
    "inhibition (%)": 92
  }
]
